experimental target: Histone-lysine N-methyltransferase EHMT2 (Homo sapiens)
test: qHTS Assay for Inhibitors of Histone Lysine Methyltransferase G9a: Hit Confirmation; further: potency means the concentration at half of the fitted maximal effect; nearly all actives have a fitted effect of over 65% in size
test parameters: G9a H3K9 monomethylation, AlphaScreen, 2 h
The other results are listed elsewhere or left out. Inconclusive results are not listed. The source made the active and inactive calls. The call rests on the fitted dose curve; in most records, active means well fitted inhibition curve with a large enough effect; inconclusive means small, poorly fitted or top-dose-only effect; inactive means flat fitted curve, though single readings scatter.
Catalogue of Potency values
attribute measured: Potency

INSERT INTO measurements (molecule, attribute_measured, recorded_result) VALUES
  ('CCCCNC(=O)CSc1nc2ccc(NC(=O)CSc3nnc(N)s3)cc2s1', 'Potency', '1.42 µM (active)'),
  ('CCOc1ccc(NC(=O)c2c(NC(=O)Cc3ccccc3)sc3c2CCC(C)C3)cc1 (stereo not given)', 'Potency', '2.57 µM (active)'),
  ('CCOC(=O)c1c(NC(=O)COc2cc(C)ccc2C(C)C)sc(C)c1C', 'Potency', '5.64 µM (active)'),
  ('c1ccc(-c2nnc3n2NC(c2ccc4c(c2)OCO4)S3)cc1 (stereo not given)', 'Potency', '0.178 µM (active)'),
  ('Cc1ccccc1C(=O)Nc1ccc(N2CCCCCC2)cc1', 'Potency', '2.83 µM (active)'),
  ('CCOC(=O)N1CCc2c(sc(NCc3cccc(F)c3)c2C(=O)Nc2ccccc2OCC)C1', 'Potency', '4.57 µM (active)'),
  ('CCn1c(SCC(=O)Nc2cccc(F)c2)nnc1-c1cc2cc(Br)ccc2o1', 'Potency', '5.01 µM (active)'),
  ('CC(NC(=O)c1ccco1)C(=O)Nc1nc(-c2ccccn2)cs1 (stereo not given)', 'Potency', '7.96 µM (active)'),
  ('CCOC(=O)c1ccc(NC(=O)CSc2ncccn2)cc1', 'Potency', '0.632 µM (active)'),
  ('CCc1ccc(Nc2ncc3c(n2)CC(c2ccco2)CC3=O)cc1 (stereo not given)', 'Potency', '31.6 µM (active)');

These entries and their values trace back to PubChem BioAssay AID588344.
